Assay: Safety Test 1: pharmacokinetics of the pyrazolopyrimidinone
Assay type: in vivo
Details: male, human, plasma, Group B: placebo + the pyrazolopyrimidinone
Endpoint Name: Cmax (ng/mL)
Quick note: give the figure in ng/mL, leave out the unit.

[ask] Recorded Cmax for CCCOc1ccc(S(=O)(=O)NCCC2CCCN2C)cc1-c1nc2c(CCC)nn(C)c2c(=O)[nH]1 (stereo not shown) , please?
[reply] 617

###

In this section, each of the molecules is paired with its reported Diastolic blood pressure mean.
Test system: health men
Test: Safety Test 2: vital signs in supine position, Silodosin combination
Type: in vivo, human
Settings: the values are: Diastolic blood pressure mean
Please reply with the bare figure in mmHg and do not write the unit itself.

Molecule	Diastolic blood pressure mean [mmHg]
C[C@H](Cc1cc2c(c(C(N)=O)c1)N(CCCO)CC2)NCCOc1ccccc1OCC(F)(F)F [Silodosin, reference compound]	62.3

Please look at the following molecule next.
[ask] Notebook: pull reported Diastolic blood pressure mean for health men, entry CCCOc1ccc(S(=O)(=O)NCCC2CCCN2C)cc1-c1nc2c(CCC)nn(C)c2c(=O)[nH]1 (centres unmarked)
[reply] 62.2

###

Assay: Safety Test 1: pharmacokinetics of the pyrazolopyrimidinone
Type: in vivo
Conditions: male, human, plasma, Group D: administered with Tamsulosin
Endpoint Name: AUC(0-inf)

[ask] Given the entry CCCOc1ccc(S(=O)(=O)NCCC2CCCN2C)cc1-c1nc2c(CCC)nn(C)c2c(=O)[nH]1 (stereo not shown) , report its measured AUC(0-inf).
[reply] 4910 ng·h/mL

###

Experiment: Safety Test 2: pharmacokinetic parameters
Type: in vivo
Settings: male, human, plasma, Group A: placebo + the pyrazolopyrimidinone; read-out: Tmax (h) Ud
Procedure: The safety evaluation was performed by observing vital signs (diastolic blood pressure, pulse rate, body temperature), clinical laboratory testing, electrocardiogram, adverse reactions such as subjective symptom and objective symptom. In addition, the effect of drug-drug interaction on pharmacokinetics of the pyrazolopyrimidinone was observed.
Endpoint Name: Tmax (h)
Form entry: value (h) — number only.

[ask] Entry CCCOc1ccc(S(=O)(=O)NCCC2CCCN2C)cc1-c1nc2c(CCC)nn(C)c2c(=O)[nH]1 (stereo not shown) [Compound of formula (I)] has what Tmax?
[reply] 1.5

###

Assay: Safety Test 1: pharmacokinetics of the pyrazolopyrimidinone
Type: in vivo
Details: male, human, plasma, Group B: placebo + the pyrazolopyrimidinone
Endpoint Name: AUC(0-inf)
I'd appreciate it if you included the unit after the number.

[ask] Fill blank: measured AUC(0-inf) of the compound CCCOc1ccc(S(=O)(=O)NCCC2CCCN2C)cc1-c1nc2c(CCC)nn(C)c2c(=O)[nH]1 (stereo not shown) is ____.
[reply] 4730 ng·h/mL

###

Assay: Safety Test 1: pharmacokinetics of the pyrazolopyrimidinone
Assay type: in vivo
Conditions: male, human, plasma, Group D: administered with Tamsulosin
Endpoint Name: Cmax (ng/mL)
Quick note: give the figure in ng/mL, leave out the unit.

[ask] What value of Cmax has been reported for the following molecule? CCCOc1ccc(S(=O)(=O)NCCC2CCCN2C)cc1-c1nc2c(CCC)nn(C)c2c(=O)[nH]1 (stereo not shown)
[reply] 624

###

Assay: Safety Test 2: pharmacokinetic parameters
Assay type: in vivo
Conditions: male, human, plasma, Tmax (h) Silodosin, Group B: placebo + Silodosin
Endpoint Name: Tmax (h)
Quick reminder: number only, in h, skip the unit.

[ask] So what's the measured Tmax for this one? C[C@H](Cc1cc2c(c(C(N)=O)c1)N(CCCO)CC2)NCCOc1ccccc1OCC(F)(F)F [Silodosin, reference compound]
[reply] 1.4
